Value source: patent US12622968B2

measurement.description: Single dose oral capsule pharmacokinetics of BHV-3500 in dogs (plasma LC-MS/MS)
Type: in vivo, beagle dogs
condition.details: female, beagle, dog, plasma, oral, 20 mg, Group 3, 20 mg with DDM; 2 hours post-dose; read-out: mean plasma exposure
measured.attribute: concentration at 2 h (nM)
All answers are understood in nM, so give the number only.

Find the measured concentration at 2 h of Cc1cc(C[C@@H](NC(=O)N2CCC(c3cc4ccccc4[nH]c3=O)CC2)C(=O)N2CCN(C3CCN(C)CC3)CC2)cc2cn[nH]c12 [BHV-3500] and report it.
29.5

* * *

measurement.description: Single dose oral capsule pharmacokinetics of BHV-3500 in dogs (plasma LC-MS/MS)
Assay type: in vivo, beagle dogs
condition.details: female, beagle, dog, plasma, po, 50 mg, Group 5, oral capsule, 50 mg BHV-3500 in 900 mg vehicle of Formulation 2 (SEDDS excipients); median; read-out: Tmax
measured.attribute: Tmax (h)
All answers are understood in h, so give the number only.

Find the measured Tmax of Cc1cc(C[C@@H](NC(=O)N2CCC(c3cc4ccccc4[nH]c3=O)CC2)C(=O)N2CCN(C3CCN(C)CC3)CC2)cc2cn[nH]c12 and report it.
2

* * *

measurement.description: Single dose oral capsule pharmacokinetics of BHV-3500 in dogs (plasma LC-MS/MS)
Format: in vivo, beagle dogs
condition.details: female, beagle, dog, plasma, po, 50 mg, Group 5, oral capsule, 50 mg BHV-3500 in 900 mg vehicle of Formulation 2 (SEDDS excipients); 2 h post-dose; average; read-out: BHV-3500 Concentration in Dog Plasma
measured.attribute: concentration at 2 h (ng/mL)
All answers are understood in ng/mL, so give the number only.

Find the measured concentration at 2 h of Cc1cc(C[C@@H](NC(=O)N2CCC(c3cc4ccccc4[nH]c3=O)CC2)C(=O)N2CCN(C3CCN(C)CC3)CC2)cc2cn[nH]c12 and report it.
40.6

* * *

measurement.description: Single dose oral capsule pharmacokinetics of BHV-3500 in dogs (plasma LC-MS/MS)
Type: in vivo, beagle dogs
condition.details: female, beagle, dog, plasma, oral, 50 mg, Group 6, 50 mg with DDM; 4 hours post-dose; read-out: mean plasma exposure
measured.attribute: concentration at 4 h (nM)
All answers are understood in nM, so give the number only.

Find the measured concentration at 4 h of Cc1cc(C[C@@H](NC(=O)N2CCC(c3cc4ccccc4[nH]c3=O)CC2)C(=O)N2CCN(C3CCN(C)CC3)CC2)cc2cn[nH]c12 and report it.
13.5

* * *

measurement.description: Single dose oral capsule pharmacokinetics of BHV-3500 in dogs (plasma LC-MS/MS)
Type: in vivo, beagle dogs
condition.details: female, beagle, dog, plasma, po, 20 mg, Group 3, oral capsule, 20 mg BHV-3500 in 25 mg DDM; individual dogs; read-out: AUC0-4 hr
measured.attribute: AUC(0-t) (ng·h/mL)
All answers are understood in ng·h/mL, so give the number only.

Find the measured AUC(0-t) of Cc1cc(C[C@@H](NC(=O)N2CCC(c3cc4ccccc4[nH]c3=O)CC2)C(=O)N2CCN(C3CCN(C)CC3)CC2)cc2cn[nH]c12 [BHV-3500] and report it.
48.1

* * *

measurement.description: Single dose oral capsule pharmacokinetics of BHV-3500 in dogs (plasma LC-MS/MS)
Format: in vivo, beagle dogs
condition.details: female, beagle, dog, plasma, po, 20 mg, Group 2, oral capsule, 20 mg BHV-3500 in 900 mg vehicle of Formulation 2 (SEDDS excipients); median; read-out: Tmax
Description: The pharmacokinetics (PK) of BHV-3500 after a single oral capsule of BHV-3500 in dogs were investigated. After each dose, blood samples (approximately 3 mL from the jugular vein) for determination of plasma levels of BHV-3500 were obtained from of each dog at six time points (pre-dose; 15, 30, and 60 minutes and 2 and 4 hours post-dose. EDTA was used as the anticoagulant. Plasma samples were frozen at approximately −70′C until analyzed. […]
measured.attribute: Tmax (h)
All answers are understood in h, so give the number only.

Find the measured Tmax of Cc1cc(C[C@@H](NC(=O)N2CCC(c3cc4ccccc4[nH]c3=O)CC2)C(=O)N2CCN(C3CCN(C)CC3)CC2)cc2cn[nH]c12 and report it.
2
